# system: human adenosine A2a receptor (Homo sapiens, UniProt P29274)
# method summary: Adenosine A2a Receptor Functional Assay (A2AGAL2)
# test conditions: CHO-K1 cells, cAMP inducible beta-galactosidase reporter, 15 nM NECA agonist challenge
pKi: −log10 of the molar value. Counter-ions that a name gives are not always drawn.
measured endpoint: pKi

Please review the following examples before continuing.
COc1cccc(-c2nc(N)c3cc(CN4CCC(F)CC4)sc3n2)c1; 6.52
Nc1nc(C2CC2)nc2sc(CN3CC=CCC3)cc12; 6.49

a = Nc1nc(-c2ccc(Cl)o2)nc2sc(CN3CCC(F)CC3)cc12 [Example 89, hydrochloride]
b = C[C@@H]1CCC[C@H](C)N1Cc1cc2c(N)nc(-c3ccco3)nc2s1
c = Nc1nc(-c2nccs2)nc2sc(CN3CCOCC3)cc12
Please list these in order of increasing pKi. Thank you! Would you mind listing the labels in the order requested? c, a, b
(c: 6.61, a: 7.44, b: 8.25)

P = Nc1nc(-c2cccc(Cl)c2)nc2sc(CN3CCOCC3)cc12
Q = Nc1nc(-c2cccc(F)c2)nc2sc(CN3CCSCC3)cc12
For the pair P and Q , which entry has the numerically smaller recorded pKi? Kindly state the label of the option you pick. P

* * *

# system: human adenosine A1 receptor (Homo sapiens, UniProt P30542)
# Sequence (P30542 1-326): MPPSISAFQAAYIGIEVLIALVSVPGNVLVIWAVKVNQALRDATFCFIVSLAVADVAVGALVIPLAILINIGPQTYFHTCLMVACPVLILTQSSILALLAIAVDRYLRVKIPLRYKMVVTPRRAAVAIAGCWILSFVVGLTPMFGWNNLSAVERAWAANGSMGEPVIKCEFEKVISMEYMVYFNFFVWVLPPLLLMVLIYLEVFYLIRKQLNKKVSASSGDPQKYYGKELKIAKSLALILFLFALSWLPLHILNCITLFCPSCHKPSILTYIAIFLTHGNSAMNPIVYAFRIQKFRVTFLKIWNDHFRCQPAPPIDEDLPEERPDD
# method summary: Adenosine A1 Receptor Functional Assay (A1GAL2)
# test conditions: CHO-K1 cells, cAMP inducible beta-galactosidase reporter, 4 nM r-PIA/1 uM Forskolin challenge
pKi: −log10 of the molar value.
measured endpoint: pKi

Solved cases (5 shown):
Cc1csc(-c2nc(N)c3cc(CN4[C@H](C)CCC[C@@H]4C)sc3n2)n1; 6.53
C[C@@H]1CCC[C@H](C)N1Cc1cc2c(N)nc(-c3ccon3)nc2s1; 6.30
Nc1nc(-c2ccc[nH]2)nc2sc(CN3CCC(F)CC3)cc12; 5.41
Nc1nc(-c2ccc(Br)o2)nc2sc(CN3CCOCC3)cc12; 6.16
Cc1ccc(-c2nc(N)c3cc(CN4CCc5ccccc5C4)sc3n2)o1; 5.48

1 = N#Cc1cccc(-c2nc(N)c3cc(CN4CC=CC4)sc3n2)c1
2 = C[C@@H]1CCC[C@H](C)N1Cc1cc2c(N)nc(-c3ccco3)nc2s1
Hi there! Just curious which has the higher pKi between 1 and 2 . Selection: enter the item's label. 2
(2: 7.00, 1: 5.69)

* * *

# system: human adenosine A1 receptor (Homo sapiens)
# Sequence (P30542 1-326): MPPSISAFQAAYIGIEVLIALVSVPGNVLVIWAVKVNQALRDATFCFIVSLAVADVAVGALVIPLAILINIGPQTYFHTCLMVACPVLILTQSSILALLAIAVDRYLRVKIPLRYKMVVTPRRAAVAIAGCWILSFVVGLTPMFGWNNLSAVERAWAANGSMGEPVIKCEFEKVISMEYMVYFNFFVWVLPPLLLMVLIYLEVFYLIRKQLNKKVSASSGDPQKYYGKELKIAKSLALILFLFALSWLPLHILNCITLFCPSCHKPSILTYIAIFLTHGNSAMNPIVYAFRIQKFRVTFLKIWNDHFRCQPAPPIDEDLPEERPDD
# method summary: Adenosine A1 Receptor Functional Assay (A1GAL2)
# test conditions: CHO-K1 cells, cAMP inducible beta-galactosidase reporter, 4 nM r-PIA/1 uM Forskolin challenge
# Procedure: Adenosine A1 Receptor Functional Assay (A1GAL2) […] Into dry wells, 20 uL of 1× Reporter Lysis Buffer (Promega E3971 (diluted in dH2O from 5× stock)) was added to each well and plates frozen at −20° C. overnight. […] Plates were counted at 405 nm on a SpectraMax Microplate Reader (Molecular Devices). Data was analyzed in Microsoft Excel and IC/EC50 curves were fit using a standardized macro.
pKi: −log10 of the molar value.
measured endpoint: pKi

Nc1nc(-c2cccc(Cl)c2)nc2sc(CN3CCC(F)CC3)cc12; 6.07
Nc1nc(-c2ccco2)nc2sc(CNC3CCCCC3)cc12; 5.61
Nc1nc(-c2cc(F)cc(F)c2)nc2sc(CN3CCC(F)CC3)cc12; 5.47
N#Cc1cccc(-c2nc(N)c3cc(CN4CCC(F)CC4)sc3n2)c1; 5.53

P = Cc1ccc(-c2nc(N)c3cc(CN4CCCCC4)sc3n2)o1
Q = COc1cccc(-c2nc(N)c3cc(CN4CCC(F)CC4)sc3n2)c1
R = Nc1nc(-c2ccco2)nc2sc(CNC34CC5CC(CC(C5)C3)C4)cc12
Arrange the 3 compounds by rising pKi, starting with the smallest. Form entry: ranked labels (order as requested). Q, R, P
(Q: 5.49, R: 5.99, P: 6.22)

* * *

# system: human adenosine A2a receptor (Homo sapiens)
# method summary: Adenosine A2a Receptor Functional Assay (A2AGAL2)
# test conditions: CHO-K1 cells, cAMP inducible beta-galactosidase reporter, 15 nM NECA agonist challenge
pKi: −log10 of the molar value.
measured endpoint: pKi

Past entries and their recorded results:
Nc1nc(-c2ccco2)nc2sc(CN3CC=CCC3)cc12 [Example 98]; 8.05
Nc1nc(-c2ccco2)nc2sc(CN3CCC(=O)CC3)cc12 [Example 45]; 6.64
Nc1nc(-c2ccc(Cl)o2)nc2sc(CN3CC=CCC3)cc12 [Example 95]; 7.97
CC(C)c1ccc(-c2nc(N)c3cc(CN4[C@H](C)CCC[C@@H]4C)sc3n2)o1 [Example 10]; 7.76
Nc1nc(-c2ccnc(Cl)c2)nc2sc(CN3CCOCC3)cc12 [Example 105]; 6.91

1 = Nc1nc(-c2cccc(F)c2)nc2sc(CN3CCC(F)CC3)cc12 [Example 60]
2 = Nc1nc(-c2ccc(Br)o2)nc2sc(CN3CCCC3)cc12 [Example 35]
3 = CCN(CC)Cc1cc2c(N)nc(-c3ccc(C(F)F)o3)nc2s1 [Example 103]
4 = C[C@@H]1CCC[C@H](C)N1Cc1cc2c(N)nc(-c3ccc(Br)o3)nc2s1 [Example 19]
5 = N#Cc1cncc(-c2nc(N)c3cc(CN4CCC(F)CC4)sc3n2)c1 [Example 87]
Arrange by pKi, high to low. Response field: labels, in requested order. 4, 2, 3, 1, 5
(4: 7.92, 2: 7.66, 3: 6.88, 1: 6.52, 5: 5.18)

* * *

# system: human adenosine A1 receptor (Homo sapiens)
# method summary: Adenosine A1 Receptor Functional Assay (A1GAL2)
# test conditions: CHO-K1 cells, cAMP inducible beta-galactosidase reporter, 4 nM r-PIA/1 uM Forskolin challenge
measured endpoint: Ki (µM)

Guide cases for Ki, answers given:
N#Cc1cccc(-c2nc(N)c3cc(CN4CCCC(F)(F)C4)sc3n2)c1; 1.18
Nc1nc(-c2nccs2)nc2sc(CN3CCOCC3)cc12; 2.73

A = COc1cccc(-c2nc(N)c3cc(CN4CCOCC4)sc3n2)c1
B = C[C@@H]1CCC[C@H](C)N1Cc1cc2c(N)nc(-c3ccc(C4CC4)o3)nc2s1
C = N#Cc1cccc(-c2nc(N)c3cc(CN4CCCC4)sc3n2)c1
D = N#Cc1ccc(-c2nc(N)c3cc(CN4CCC(F)CC4)sc3n2)cc1
Rank the items in ascending order with respect to Ki. Reply with the item labels sorted in the order that was asked for. C, B, A, D
(C: 0.129 µM, B: 0.333 µM, A: 2.99 µM, D: 8.43 µM)

* * *

# system: human A2a adenosine receptor (Homo sapiens, UniProt P29274)
# Sequence (P29274 whole entry): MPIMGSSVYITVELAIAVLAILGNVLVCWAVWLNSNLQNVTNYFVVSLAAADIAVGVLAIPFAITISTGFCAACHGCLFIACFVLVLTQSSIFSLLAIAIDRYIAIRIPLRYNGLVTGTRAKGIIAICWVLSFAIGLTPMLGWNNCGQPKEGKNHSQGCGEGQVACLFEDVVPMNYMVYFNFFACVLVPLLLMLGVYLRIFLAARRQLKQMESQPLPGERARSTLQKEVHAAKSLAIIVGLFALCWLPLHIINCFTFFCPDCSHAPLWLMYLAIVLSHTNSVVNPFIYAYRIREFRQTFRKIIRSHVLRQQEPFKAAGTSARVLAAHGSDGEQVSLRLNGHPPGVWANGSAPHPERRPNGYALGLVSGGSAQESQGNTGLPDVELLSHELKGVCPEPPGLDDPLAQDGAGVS
# method summary: Ligand Binding Assay for Adenosine A2a Receptor (A2A-B)
# test conditions: HEK293 plasma membrane, radioligand [3H]CGS21680
pKi: −log10 of the molar value.
measured endpoint: pKi

Solved cases below.
N#Cc1cccc(-c2nc(N)c3cc(CN4CCCC(F)(F)C4)sc3n2)c1; 6.42
Nc1nc(-c2ccco2)nc2sc(CN3CCC(F)C3)cc12 (stereo not drawn); 8.23
Nc1nc(-c2ccc(Br)o2)nc2sc(CN3CCCC3)cc12; 7.82
Nc1nc(-c2ccco2)nc2sc(CN3CCCC3)cc12; 7.84
Cc1ccc(-c2nc(N)c3cc(CN4CCc5ccccc5C4)sc3n2)o1; 6.73

I = N#Cc1ccccc1-c1nc(N)c2cc(CN3CCC(F)CC3)sc2n1
II = C[C@@H]1CCC[C@H](C)N1Cc1cc2c(N)nc(-c3ccco3)nc2s1
III = COCCNCc1cc2c(N)nc(-c3ccco3)nc2s1
IV = Nc1nc(-c2ccco2)nc2sc(CN3CCC(F)(F)CC3)cc12
Highest pKi first, then in falling order down to the smallest. // list labels; follow requested order II, IV, III, I
